These measurements were taken from PubChem BioAssay (NCI).

- System: ACHN renal
Log the outcome using a class from active, inactive

Known results for compounds:
compound	measurementTarget	answerLabel
O=C(CCCn1c2c(sc3ncccc32)c(=O)n2nnc(-c3ccccc3)c12)NCCc1cnc[nH]1	ACHN renal	inactive
COc1ccc(Nc2c3ccccc3nc3c2c2ccccc2n3C)cc1	ACHN renal	inactive
CC1=C(N2CC2)C(=O)C(CO)=C(N2CC2)C1=O	ACHN renal	active
CN(C)CC(C(=O)c1ccccc1)c1ccccc1 (stereo unspecified)	ACHN renal	inactive
CCCCCCN(CCCCCC)CCCNc1nccc2ccccc12	ACHN renal	inactive

What is the recorded call for this compound in the test? COc1cc2cc(c1Cl)N(C)C(=O)CC(OC(=O)C(C)C)C1(C)OC1C(C)C1CC(O)(NC(=O)O1)C(OC)/C=C/C=C(C)C2 (stereo unspecified)
active

Name the outcome recorded for CSC1=Nc2c(c(C)c(-c3ccccc3)n2COC(CO)CO)C2=NC(=O)C(C)N12 (stereo unspecified) in the assay.
inactive

====

- Tested on: SF-295 CNS
- assaySummary: NCI tumour cell line growth inhibition, 48 h
TGI reference

The examples below pair each entry with its known result.
compound	propertyName	experimentalValue
COc1ccc2c(=O)c([Se]c3coc4cc(OC)ccc4c3=O)coc2c1	TGI	> 100 µM
COCCO	TGI	> 100 µM
C/C=C/C=N/N(c1nnc(-c2ccccc2)c(-c2ccccc2)n1)S(=O)(=O)c1ccc(C)cc1	TGI	22.9 µM

Query (compound): C/C(Cl)=N\OC(=O)Nc1ccc([N+](=O)[O-])cc1 ; field requested: TGI
31.8 µM

Field request: TGI | item: O=C(CC(=O)N1N=C(n2ccc3ccccc32)CC1c1ccccc1)Nc1cccc(Cl)c1 (centres undefined)
> 100 µM

Could you tell me which TGI is on file for N#CC12COC3(CCCCC3C1(C#N)C#N)OC2=N (centres undefined) ?
43.1 µM

Which measured TGI value corresponds to O=[N+]([O-])c1cc2n[nH]nc2c2nonc12 ?
> 100 µM

So what does the record say about TGI for Cc1cc(C)nc(NS(=O)(=O)c2ccc(Nc3c4ccccc4nc4c(C(=O)NCCN(C)C)ccc(Cl)c34)cc2)n1 ?
5.91 µM

====

- Test system: LXFL 529 NSCLC
- assaySummary: NCI tumour cell line growth inhibition, 48 h
propertyName: TGI

Check out these entries, answers already filled in.
structureSmilesString	TGI
CC(=O)CC(=O)CCCC(=O)Nc1ccc(Cl)cc1C	> 100 µM
CC1=C(C(=O)Nc2cccc(C(F)(F)F)c2)C(c2ccc(O)cc2)C(C(=O)Nc2cccc(C(F)(F)F)c2)=C(C)N1	55.3 µM
Cc1ccc2nc3c(Cl)cc(=O)cc-3sc2c1	63.1 µM
CCOC(=O)CC(=O)ON(C)C(=O)Cc1ccccc1	> 100 µM
NC(=S)N/N=C(/CC(=O)c1ccc([N+](=O)[O-])cc1)C(=O)Nc1ncc([N+](=O)[O-])s1	> 100 µM

Pending molecule:
Any idea what its TGI is? The molecule is COc1ccc(/C=C/c2cc(OC)c(O[Si](C)(C)C(C)(C)C)c(OC)c2)cc1
> 100 µM

====

The following compounds are shown together with reported TGI values.
- Test system: NCI-H460 lung
- assaySummary: NCI tumour cell line growth inhibition, 48 h
Please state the figure in µM; there is no need to write the unit.

Recorded TGI, per entry:
structureSmilesString	TGI / µM
COC(=O)[C@]12CC[C@@H](C)[C@H](C)[C@@H]1C1=CC[C@@H]3[C@@]4(C)C[C@@H](OC(=O)c5ccco5)[C@H](O)[C@@](C)(CO)[C@@H]4[C@H](O)C[C@@]3(C)[C@]1(C)CC2	3.87
CCN(CC)CCNc1ccc([N+](=O)[O-])c2nc3ccccc3c(N)c12	1.24

Kindly review the next compound as well.
Suppose we examine the compound Cc1ccc2nc3c(C(=O)NCCN(C)C)cccc3cc2c1 ; what TGI value has been reported?
2.36
